Values from patent US6784175B2

# tested.target: (+)-MK801 binding site of the ionotropic NMDA receptor
# test.protocol: (3H)-(+)-MK801 receptor bonding test on rat cerebral membrane homogenates
# assay.context: calculated from IC50 by Cheng-Prusoff equation; 1 nmol/l (3H)-(+)-MK801; rat brain membrane homogenate; hydrochloride
pKi: −log10 of the molar value. Structures can show the parent of a compound that is named as a salt.
Outcome: met for pKi of at least 6; not met for anything lower.

Example results:
{"compound": "Cc1ccccc1C(C1CCCCC1(O)CCc1ccccc1Cl)N(C)C (single isomer, unassigned; (-)) [Example 48, hydrochloride]", "assigned.label": "met"}
{"compound": "CN(C)C(c1ccccc1)C1CCCCC1(O)CCCc1ccccc1.Cl (single isomer, unassigned; (-)) [Example 50, hydrochloride]", "assigned.label": "met"}
{"compound": "CN(C)C(c1ccccc1Cl)C1CCCCC1(O)CCc1ccccc1F.Cl (single isomer, unassigned; (-)) [Example 52, hydrochloride]", "assigned.label": "met"}

Problem: Confirm if pKi reported for the compound CN(C)C(c1ccccc1)C1CCCCC1(O)CCCc1ccccc1.Cl (single isomer, unassigned; (+)) [Example 51, hydrochloride] is 6 or above.
Solution: not met

----------
# Test system: (+)-MK801 binding site of the ionotropic NMDA receptor
# test.protocol: (3H)-(+)-MK801 receptor bonding test on rat cerebral membrane homogenates
# assay.context: 10 μmol/l compound; 1 nmol/l (3H)-(+)-MK801; rat brain membrane homogenate; triple determinations
value.kind: Percentage inhibition of (3H)-(+)-MK801 binding at 10 μM (%)
Give a bare numeral; the unit % is implied.

// known answers, use as guide
{"molecule": "Cc1ccccc1C(C1CCCCC1(O)CCCc1ccccc1)N(C)C.Cl (stereo not shown)", "readout.number": 91}
{"molecule": "CN(C)C(c1ccccc1Cl)C1CCCCC1(O)CCCc1ccccc1.Cl (stereo not shown)", "readout.number": 85}
{"molecule": "CN(C)C(c1ccccc1Cl)C1CCCCC1(O)CCc1ccccc1.Cl (stereo not shown)", "readout.number": 95}
{"molecule": "Cc1ccccc1C(C1CCCCC1(O)CCc1ccccc1F)N1CCCC1.Cl (stereo not shown)", "readout.number": 99}
{"molecule": "CN(C)C(c1ccccc1F)C1CCCCC1(O)CCc1ccc(F)cc1.Cl (stereo not shown)", "readout.number": 54}

Problem: What is its Percentage inhibition of (3H)-(+)-MK801 binding at 10 μM for (+)-MK801 binding site of the ionotropic NMDA receptor? Entry: COc1ccccc1C(C1CCCCC1(O)CCc1ccccc1F)N(C)C.Cl (stereo not shown)
Solution: 82

Problem: Could you do the same for CN(C)C(c1ccccc1F)C1CCCCC1(O)CCCc1ccccc1.Cl (stereo not shown) , please?
Solution: 91

Problem: Could you do the same for Cc1ccccc1C(C1CCCCC1(O)CCc1ccccc1F)N(C)C.Cl (stereo not shown) , please?
Solution: 105

Problem: Could you do the same for Cc1ccccc1C(C1CCCCC1(O)CCc1ccccc1Cl)N1CCCC1.Cl (stereo not shown) , please?
Solution: 101

Problem: Could you do the same for Cc1ccccc1CCC1(O)CCCCC1C(c1ccccc1C)N(C)C.Cl (stereo not shown) , please?
Solution: 90

Problem: Could you do the same for Cc1ccccc1CCC1(O)CCCCC1C(c1ccccc1Br)N(C)C.Cl (stereo not shown) , please?
Solution: 93

----------
value.kind: melting point

{"compound": "CN(C)C(c1ccccc1F)C1CCCCC1(O)CCc1ccccc1.Cl (stereo not shown)", "melting point": "172 to 174 °C"}
{"compound": "CN(C)C(c1ccccc1Br)C1CCCCC1(O)CCc1ccccc1.Cl (stereo not shown)", "melting point": "162 to 165 °C"}

Problem: So what's the measured melting point for this one? Cc1ccccc1C(C1CCCCC1(O)CCc1ccccc1)N(C)C.Cl (stereo not shown)
Solution: 187 to 188 °C

Problem: Could you do the same for CN(C)C(c1ccccc1Cl)C1CCCCC1(O)CCc1cccc(F)c1.Cl (stereo not shown) , please?
Solution: 120 to 126 °C

----------
# System: (+)-MK801 binding site of the ionotropic NMDA receptor
# test.protocol: (3H)-(+)-MK801 receptor bonding test on rat cerebral membrane homogenates
# assay.context: 10 μmol/l compound; 1 nmol/l (3H)-(+)-MK801; rat brain membrane homogenate; triple determinations
Output schema: class label derived from Percentage inhibition of (3H)-(+)-MK801 binding at 10 μM. Mapping: lower: < 70%; middle: ≥ 70% and < 90%; upper: ≥ 90%

{"compound": "CN(C)C(c1ccccc1C(F)(F)F)C1CCCCC1(O)CCc1ccccc1Cl.Cl (centres unmarked)", "tested.target": "(+)-MK801 binding site of the ionotropic NMDA receptor", "assigned.label": "middle"}

Problem: Class for CN(C)C(c1ccccc1Br)C1CCCCC1(O)CCCc1ccccc1.Cl (centres unmarked) ?
Solution: middle

Problem: Could you do the same for CN(C)C(c1ccccc1)C1CCCCC1(O)CCc1ccccc1.Cl (centres unmarked) , please?
Solution: lower

Problem: Could you do the same for Cc1cccc(C(C2CCCCC2(O)CCc2ccccc2Cl)N(C)C)c1.Cl (centres unmarked) , please?
Solution: lower

Problem: Could you do the same for CN(C)C(c1ccccc1Br)C1CCCCC1(O)CCc1ccccc1Cl.Cl (centres unmarked) , please?
Solution: upper

Problem: Could you do the same for CN(C)C(c1ccccc1C(F)(F)F)C1CCCCC1(O)CCc1ccccc1.Cl (centres unmarked) , please?
Solution: lower

Problem: Could you do the same for CN(C)C(c1ccccc1Cl)C1CCCCC1(O)CCc1cccc(F)c1.Cl (centres unmarked) , please?
Solution: upper

Problem: Could you do the same for COc1cccc(C(C2CCCCC2(O)CCc2ccccc2)N(C)C)c1.Cl (centres unmarked) , please?
Solution: lower

----------
# System: (+)-MK801 binding site of the ionotropic NMDA receptor
# test.protocol: (3H)-(+)-MK801 receptor bonding test on rat cerebral membrane homogenates
# assay.context: 10 μmol/l compound; 1 nmol/l (3H)-(+)-MK801; rat brain membrane homogenate; triple determinations
Outcome: true (1) for Percentage inhibition of (3H)-(+)-MK801 binding at 10 μM of at least 90%; false (0) for anything lower.

Example results:
{"compound": "CN(C)C(c1ccccc1)C1CCCCC1(O)CCCc1ccccc1.Cl (stereo not drawn) [Example 6]", "assigned.label": "false (0)"}
{"compound": "CN(C)C(c1cccc(F)c1)C1CCCCC1(O)CCc1ccccc1Cl.Cl (stereo not drawn) [Example 22]", "assigned.label": "false (0)"}
{"compound": "CN(C)C(c1ccccc1Cl)C1CCCCC1(O)CCc1ccccc1F.Cl (stereo not drawn) [Example 10]", "assigned.label": "true (1)"}
{"compound": "Cc1ccccc1C(C1CCCCC1(O)CCc1ccc(F)cc1)N(C)C.Cl (stereo not drawn) [Example 18]", "assigned.label": "false (0)"}
{"compound": "CN(C)C(c1ccc(F)cc1Cl)C1CCCCC1(O)CCc1ccccc1F.Cl (stereo not drawn) [Example 41]", "assigned.label": "true (1)"}
{"compound": "CN(C)C(c1ccccc1Cl)C1CCCCC1(O)CCc1ccccc1Cl.Cl (stereo not drawn) [Example 33]", "assigned.label": "true (1)"}
{"compound": "CN(C)C(c1ccccc1Cl)C1CCCCC1(O)CCc1ccc(F)cc1.Cl (stereo not drawn) [Example 9]", "assigned.label": "false (0)"}
{"compound": "CN(C)C(c1ccccc1F)C1CCCCC1(O)CCc1ccccc1Cl.Cl (stereo not drawn) [Example 19]", "assigned.label": "true (1)"}
{"compound": "CN(C)C(c1ccccc1F)C1CCCCC1(O)CCc1ccccc1F.Cl (stereo not drawn) [Example 29]", "assigned.label": "true (1)"}
{"compound": "Cc1ccccc1CCC1(O)CCCCC1C(c1ccccc1)N(C)C.Cl (stereo not drawn) [Example 37]", "assigned.label": "false (0)"}

Problem: Confirm if Percentage inhibition of (3H)-(+)-MK801 binding at 10 μM reported for the compound CN(C)C(c1ccccc1Br)C1CCCCC1(O)CCc1ccccc1F.Cl (stereo not drawn) [Example 34] is 90% or above.
Solution: true (1)

Problem: Could you do the same for Cc1ccccc1C(C1CCCCC1(O)CCc1ccccc1Cl)N1CCOCC1.Cl (stereo not drawn) [Example 24] , please?
Solution: false (0)

----------
# System: (+)-MK801 binding site of the ionotropic NMDA receptor
# test.protocol: (3H)-(+)-MK801 receptor bonding test on rat cerebral membrane homogenates
# assay.context: 10 μmol/l compound; 1 nmol/l (3H)-(+)-MK801; rat brain membrane homogenate; triple determinations
value.kind: Percentage inhibition of (3H)-(+)-MK801 binding at 10 μM (%)
Give a bare numeral; the unit % is implied.

Problem: So what's the measured Percentage inhibition of (3H)-(+)-MK801 binding at 10 μM for this one? Cc1ccccc1C(C1CCCCC1(O)CCc1ccccc1Cl)N1CCCCC1.Cl (stereo not drawn) [Example 25]
Solution: 89

Problem: Could you do the same for CN(C)C(c1ccccc1C(F)(F)F)C1CCCCC1(O)CCc1ccccc1F.Cl (stereo not drawn) [Example 47] , please?
Solution: 90

Problem: Could you do the same for CN(C)C(c1ccccc1F)C1CCCCC1(O)CCc1ccccc1.Cl (stereo not drawn) [Example 8] , please?
Solution: 91

Problem: Could you do the same for CN(C)C(c1ccccc1Br)C1CCCCC1(O)CCc1ccccc1.Cl (stereo not drawn) [Example 3] , please?
Solution: 91

Problem: Could you do the same for Cc1ccccc1CCC1(O)CCCCC1C(c1ccccc1F)N(C)C.Cl (stereo not drawn) [Example 43] , please?
Solution: 92

Problem: Could you do the same for CN(C)C(c1ccccc1F)C1CCCCC1(O)CCc1cccc(Cl)c1.Cl (stereo not drawn) [Example 21] , please?
Solution: 90
